Molecular target: Integrin alpha-V/beta-3 (Homo sapiens, UniProt P05106+P06756)
Sequence (P05106 27-788 limits assumed): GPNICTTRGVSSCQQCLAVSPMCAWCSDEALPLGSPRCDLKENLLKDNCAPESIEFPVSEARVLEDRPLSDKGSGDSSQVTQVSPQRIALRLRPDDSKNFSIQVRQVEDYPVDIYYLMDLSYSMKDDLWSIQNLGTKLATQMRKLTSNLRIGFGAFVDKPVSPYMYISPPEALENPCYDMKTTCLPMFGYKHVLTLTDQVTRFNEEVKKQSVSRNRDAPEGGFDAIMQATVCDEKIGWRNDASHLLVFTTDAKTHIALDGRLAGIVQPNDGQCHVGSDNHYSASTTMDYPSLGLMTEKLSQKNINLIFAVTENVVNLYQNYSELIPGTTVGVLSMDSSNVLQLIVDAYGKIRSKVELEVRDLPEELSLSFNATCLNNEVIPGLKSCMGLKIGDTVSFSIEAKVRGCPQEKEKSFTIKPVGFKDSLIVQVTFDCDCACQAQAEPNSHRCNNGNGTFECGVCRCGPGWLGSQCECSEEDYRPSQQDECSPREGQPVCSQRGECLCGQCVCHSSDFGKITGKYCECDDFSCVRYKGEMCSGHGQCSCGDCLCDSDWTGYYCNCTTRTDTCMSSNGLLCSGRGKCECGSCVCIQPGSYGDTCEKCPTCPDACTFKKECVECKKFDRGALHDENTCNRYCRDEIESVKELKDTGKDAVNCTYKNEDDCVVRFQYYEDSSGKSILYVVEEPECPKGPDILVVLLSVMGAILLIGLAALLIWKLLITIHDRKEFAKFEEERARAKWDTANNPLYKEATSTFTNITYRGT
Sequence (P06756 31-889 limits assumed): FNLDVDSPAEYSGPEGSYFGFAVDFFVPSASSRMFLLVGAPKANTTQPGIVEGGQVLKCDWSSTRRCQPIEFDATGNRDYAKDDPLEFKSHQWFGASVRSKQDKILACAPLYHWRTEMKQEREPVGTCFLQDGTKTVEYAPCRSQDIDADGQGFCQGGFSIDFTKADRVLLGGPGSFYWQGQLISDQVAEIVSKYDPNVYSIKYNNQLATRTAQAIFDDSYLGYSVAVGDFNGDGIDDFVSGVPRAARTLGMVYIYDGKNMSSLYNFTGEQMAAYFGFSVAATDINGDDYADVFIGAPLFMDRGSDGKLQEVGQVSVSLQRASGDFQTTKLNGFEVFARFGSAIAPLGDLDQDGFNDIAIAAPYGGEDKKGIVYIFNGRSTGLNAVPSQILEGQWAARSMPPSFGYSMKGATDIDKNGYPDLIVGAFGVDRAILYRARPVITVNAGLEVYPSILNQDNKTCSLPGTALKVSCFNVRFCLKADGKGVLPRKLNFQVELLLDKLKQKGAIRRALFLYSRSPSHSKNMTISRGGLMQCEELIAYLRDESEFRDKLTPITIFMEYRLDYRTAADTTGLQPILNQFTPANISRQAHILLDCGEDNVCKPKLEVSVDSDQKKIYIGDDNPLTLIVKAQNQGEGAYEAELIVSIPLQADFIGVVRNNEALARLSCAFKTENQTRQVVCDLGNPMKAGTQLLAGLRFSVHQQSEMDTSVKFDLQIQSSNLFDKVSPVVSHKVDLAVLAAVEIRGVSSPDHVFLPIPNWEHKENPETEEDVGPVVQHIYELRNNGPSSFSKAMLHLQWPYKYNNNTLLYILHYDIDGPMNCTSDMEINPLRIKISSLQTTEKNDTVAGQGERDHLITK
Sequence (P06756 891-1048 limits assumed): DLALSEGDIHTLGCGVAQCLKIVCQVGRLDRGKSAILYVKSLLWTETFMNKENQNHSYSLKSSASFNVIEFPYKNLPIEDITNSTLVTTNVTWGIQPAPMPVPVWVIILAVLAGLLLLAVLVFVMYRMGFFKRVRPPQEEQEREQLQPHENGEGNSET
Assay: Inhibition of Integrin alphav-beta3 receptor expressed in HEK293 cells
Format: cell-based
MEASUREMENT NAME: IC50 (nM)

Previously resolved entries follow.
molecule=O=C(O)C[C@H](Cc1nc(CCCc2ccc3c(n2)NCCC3)no1)c1ccc2c(c1)OCO2 measurement_name=IC50 unit_name=nM measurement=0.65
molecule="O=C(O)CC(Cc1nc(CCCc2ccc3c(n2)NCCC3)no1)c1cccnc1 (stereo not given)" measurement_name=IC50 unit_name=nM measurement=0.77

A = C#CC(CC(=O)O)Cc1nc(CCCc2ccc3c(n2)NCCC3)no1 (stereo not given)
B = O=C(O)CC(Cc1nc(CCCc2ccc3c(n2)NCCC3)no1)c1ccc2c(c1)OCC2 (stereo not given)
C = O=C(O)CC(Cc1nc(CCCc2ccc3c(n2)NCCC3)no1)c1ccc2ncoc2c1 (stereo not given)
I would appreciate it if you could sort these 3 molecules by IC50, starting from the smallest number. Return the labels ranked in the requested order, please.
C, B, A
(C: 0.32 nM, B: 0.63 nM, A: 4 nM)

----------
Biological target: Integrin alpha-V/beta-3 (Homo sapiens, UniProt P05106+P06756)
Assay: Inhibition of Integrin alphav-beta3 receptor by SPRA assay
Assay type: protein-complex assay
MEASUREMENT NAME: IC50 (nM)

Consider the worked cases shown below.
molecule="CC(CC(=O)O)Cc1nc(CCCc2ccc3c(n2)NCCC3)no1 (stereo not given)" unit_name=nM measurement=12
molecule="CC(CC(=O)O)(Cc1nc(CCCc2ccc3c(n2)NCCC3)no1)c1cccnc1 (stereo not given)" unit_name=nM measurement=3.6
molecule="CC(CC(=O)O)(Cc1nc(CCCc2ccc3c(n2)NCCC3)no1)c1ccccc1 (stereo not given)" unit_name=nM measurement=116

I = O=C(O)CC(Cc1nc(CCCc2ccc3c(n2)NCCC3)no1)c1cccc(F)c1 (stereo not given)
II = O=C(O)C[C@H](Cc1nc(CCCCNc2cc(N3CCSCC3)ccn2)no1)c1ccc2c(c1)OCO2
Would you kindly point out which of I and II has the smaller IC50 figure? Kindly give the label for the entry you pick.
II

----------
Assay: Half life in rat at 5 mg/kg, iv
Type: ADME, organism-based
Design: dose 5 mg/kg, route intravenous
Settings: in vivo
MEASUREMENT NAME: half-life (min)

Before answering, review these 3 worked examples.
compound=O=C(O)C[C@H](Cc1nc(CCCCNc2cc(N3CCSCC3)ccn2)no1)c1ccc2c(c1)OCO2 unit_name=min measurement=24
compound=O=C(O)C[C@H](Cc1nc(CCCc2ccc3c(n2)NCCC3)no1)c1ccc2c(c1)OCO2 unit_name=min measurement=84
compound="CN1CCNc2nc(CCCc3noc(CC(CC(=O)O)c4ccc5c(c4)OCO5)n3)ccc21 (configuration not stated)" unit_name=min measurement=55.8

P = O=C(O)CC(Cc1nc(CCCc2ccc3c(n2)NCCC3)no1)c1cnc2ccccc2c1 (configuration not stated)
Q = O=C(O)CC(Cc1nc(CCCc2ccc3c(n2)NCCC3)no1)c1cnc(C2CC2)s1 (configuration not stated)
Endpoint returns whichever of P and Q has the numerically higher half-life. To answer, give the label that identifies your chosen option.
Q
(Q: 108 min, P: 66 min)

----------
Target: Integrin alpha-V/beta-3 (Homo sapiens, UniProt P05106+P06756)
Experiment: Inhibition of Integrin alphav-beta3 receptor expressed in HEK293 cells
Type: cell-based
pIC50: −log10 of the molar value.
MEASUREMENT NAME: pIC50

Reference set (2 entries):
compound=O=C(O)C[C@H](Cc1nc(CCCCNc2cc(N3CCOCC3)ccn2)no1)c1ccc2c(c1)OCO2 assayed_target="Integrin alpha-V/beta-3 (Homo sapiens, UniProt P05106+P06756)" measurement=9.13
compound=O=C(O)C[C@H](Cc1nc(CCCCNc2cc(N3CCSCC3)ccn2)no1)c1ccc2c(c1)OCO2 assayed_target="Integrin alpha-V/beta-3 (Homo sapiens, UniProt P05106+P06756)" measurement=9.21

I = O=C(O)CC(Cc1nc(CCCc2ccc3c(n2)NCCC3)no1)c1cnc(C2CC2)s1 (stereo not given)
II = O=C(O)CC(Cc1nc(CCCc2ccc3c(n2)NCCC3)no1)c1cccc(F)c1 (stereo not given)
III = CNc1cccc(CCCc2noc(CC(CC(=O)O)c3ccc4c(c3)OCO4)n2)n1 (stereo not given)
Reorder: pIC50, max to min. Return the labels ranked in the requested order, please.
I, II, III
(I: 9.22, II: 8.96, III: 8.49)

----------
Molecular target: Integrin alpha-IIb/beta-3 (Homo sapiens, UniProt P05106+P08514)
Sequence (P08514 32-887 limits assumed, one chain of several): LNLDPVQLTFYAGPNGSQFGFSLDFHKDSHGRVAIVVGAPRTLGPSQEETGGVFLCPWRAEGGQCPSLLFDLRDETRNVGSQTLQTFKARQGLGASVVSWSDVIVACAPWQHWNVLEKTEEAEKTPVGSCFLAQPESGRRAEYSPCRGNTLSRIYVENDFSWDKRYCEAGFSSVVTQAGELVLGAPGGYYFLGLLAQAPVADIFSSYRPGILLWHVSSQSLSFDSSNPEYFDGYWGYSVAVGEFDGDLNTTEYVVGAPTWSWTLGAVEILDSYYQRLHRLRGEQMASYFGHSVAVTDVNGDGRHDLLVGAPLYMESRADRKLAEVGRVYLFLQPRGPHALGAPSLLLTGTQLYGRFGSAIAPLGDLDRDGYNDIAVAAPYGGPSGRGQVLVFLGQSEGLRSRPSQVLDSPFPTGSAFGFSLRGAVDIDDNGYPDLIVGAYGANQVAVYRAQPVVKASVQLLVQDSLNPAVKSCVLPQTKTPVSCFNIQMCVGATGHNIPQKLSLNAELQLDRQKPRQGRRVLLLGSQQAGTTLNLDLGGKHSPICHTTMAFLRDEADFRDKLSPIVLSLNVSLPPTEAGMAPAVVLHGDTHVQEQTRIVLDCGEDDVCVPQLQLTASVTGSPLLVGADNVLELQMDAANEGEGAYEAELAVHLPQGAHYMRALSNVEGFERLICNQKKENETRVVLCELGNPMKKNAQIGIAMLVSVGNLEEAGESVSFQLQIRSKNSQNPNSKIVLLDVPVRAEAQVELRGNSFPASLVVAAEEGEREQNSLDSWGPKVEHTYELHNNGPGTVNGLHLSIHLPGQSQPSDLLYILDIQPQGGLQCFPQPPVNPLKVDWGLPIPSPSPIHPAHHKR
Sequence (P08514 891-1039 limits assumed, one chain of several): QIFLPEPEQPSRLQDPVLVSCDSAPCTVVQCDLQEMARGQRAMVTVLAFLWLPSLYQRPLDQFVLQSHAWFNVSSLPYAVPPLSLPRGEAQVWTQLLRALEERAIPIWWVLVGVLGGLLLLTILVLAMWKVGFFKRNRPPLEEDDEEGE
Assay: Inhibition of Integrin alpha-2b-beta-3 receptor by SPRA assay
pIC50: −log10 of the molar value.
MEASUREMENT NAME: pIC50

Solved cases (3 shown):
compound="O=C(O)CC(Cc1nc(CCCc2ccc3c(n2)NCCC3)no1)c1cnn(-c2ccccc2)c1 (stereo not given)" measurement_name=pIC50 measurement=6.67
compound="CC(CC(=O)O)(Cc1nc(CCCc2ccc3c(n2)NCCC3)no1)c1cccnc1 (stereo not given)" measurement_name=pIC50 measurement=6.02
compound=O=C(O)CC1(Cc2nc(CCCc3ccc4c(n3)NCCC4)no2)CCCC1 measurement_name=pIC50 measurement=5.09

1 = Cc1ccnc(NCCCCc2noc(C[C@@H](CC(=O)O)c3ccc4c(c3)OCO4)n2)c1
2 = C#CC(CC(=O)O)Cc1nc(CCCc2ccc3c(n2)NCCC3)no1 (stereo not given)
3 = O=C(O)C[C@H](Cc1nc(CCCCNc2cc(N3CCOCC3)ccn2)no1)c1ccc2c(c1)OCO2
4 = O=C(O)CC(Cc1nc(CCCc2ccc3c(n2)NCCC3)no1)c1ccccc1 (stereo not given)
5 = COc1ccc(C(CC(=O)O)Cc2nc(CCCc3ccc4c(n3)NCCC4)no2)cn1 (stereo not given)
Would you mind ranking these compounds by ascending pIC50? Answer by listing the labels in the requested order.
2, 4, 5, 1, 3
(2: 5.91, 4: 6.13, 5: 6.73, 1: 7.04, 3: 7.77)

----------
Assay: Clearance in rat at 5 mg/kg, iv
Assay type: ADME, organism-based
Design: dose 5 mg/kg, route intravenous
Conditions: in vivo
MEASUREMENT NAME: clearance (mL/min/kg)

Solved cases below.
compound=O=C(O)C[C@H](Cc1nc(CCCCNc2cc(N3CCSCC3)ccn2)no1)c1ccc2c(c1)OCO2 measurement=78
compound="O=C(O)CC(Cc1nc(CCCc2ccc3c(n2)NCCC3)no1)c1cnc(C2CC2)s1 (configuration not stated)" measurement=5.56
compound="O=C(O)CC(Cc1nc(CCCc2ccc3c(n2)NCCC3)no1)c1ccc2c(c1)OCC2 (configuration not stated)" measurement=17.3

I = O=C(O)C[C@H](Cc1nc(CCCc2ccc3c(n2)NCCC3)no1)c1ccc2c(c1)OCO2
II = O=C(O)CC(Cc1nc(CCCc2ccc3c(n2)NCCC3)no1)c1cnc2ccccc2c1 (configuration not stated)
// pick min by clearance: I , II Your choice should be expressed through its label.
I

I = COc1ccc(C(CC(=O)O)Cc2nc(CCCc3ccc4c(n3)NCCC4)no2)cn1 (configuration not stated)
II = CN1CCNc2nc(CCCc3noc(CC(CC(=O)O)c4ccc5c(c4)OCO5)n3)ccc21 (configuration not stated)
Returns the identifier with the smallest measured clearance among I and II . In your reply, give the label of the chosen option.
I
(I: 12 mL/min/kg, II: 18.2 mL/min/kg)

----------
Biological target: Integrin alpha-V/beta-1 (Homo sapiens, UniProt P05556+P06756)
Sequence (P05556 21-798 limits assumed, one chain of several): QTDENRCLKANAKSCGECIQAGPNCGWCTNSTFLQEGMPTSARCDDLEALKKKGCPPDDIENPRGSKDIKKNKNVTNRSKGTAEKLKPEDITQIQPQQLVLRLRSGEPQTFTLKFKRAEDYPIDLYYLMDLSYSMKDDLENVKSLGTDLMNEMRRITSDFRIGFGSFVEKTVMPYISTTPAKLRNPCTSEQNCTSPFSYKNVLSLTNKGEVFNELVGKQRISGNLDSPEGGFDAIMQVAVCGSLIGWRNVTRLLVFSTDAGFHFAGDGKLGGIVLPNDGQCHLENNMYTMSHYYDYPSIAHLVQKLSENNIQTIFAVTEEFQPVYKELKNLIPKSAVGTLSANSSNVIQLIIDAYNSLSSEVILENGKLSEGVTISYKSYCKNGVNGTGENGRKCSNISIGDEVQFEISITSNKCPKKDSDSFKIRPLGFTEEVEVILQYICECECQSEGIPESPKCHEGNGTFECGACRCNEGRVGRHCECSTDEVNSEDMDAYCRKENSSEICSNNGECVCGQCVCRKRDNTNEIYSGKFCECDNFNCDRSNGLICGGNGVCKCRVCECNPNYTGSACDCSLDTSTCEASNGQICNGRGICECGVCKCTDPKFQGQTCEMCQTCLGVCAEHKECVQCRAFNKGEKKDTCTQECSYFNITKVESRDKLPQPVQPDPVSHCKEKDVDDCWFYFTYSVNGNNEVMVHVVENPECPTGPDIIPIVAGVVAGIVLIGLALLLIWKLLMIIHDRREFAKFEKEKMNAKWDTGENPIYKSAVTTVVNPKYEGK
Assay: Inhibition of Integrin alphav-beta1 receptor expressed in HEK293 cell line
MEASUREMENT NAME: IC50 (nM)

molecule=O=C(O)C[C@H](Cc1nc(CCCc2ccc3c(n2)NCCC3)no1)c1ccc2c(c1)OCO2 assayed_target="Integrin alpha-V/beta-1 (Homo sapiens, UniProt P05556+P06756)" measurement=2.6

I = O=C(O)CC(Cc1nc(CCCc2ccc3c(n2)NCCC3)no1)c1ccc2ncoc2c1 (stereo not drawn)
II = O=C(O)CC(Cc1nc(CCCc2ccc3c(n2)NCCC3)no1)c1ccc2c(c1)OCC2 (stereo not drawn)
Determine, for I and II , which has the greater value of IC50. Please respond with the label that marks your chosen entry.
II
(II: 9.7 nM, I: 2.7 nM)

----------
Assay: Volume of distribution in rat at 5 mg/kg, iv
Format: ADME, organism-based
Parameters: dose 5 mg/kg, route intravenous
Conditions: in vivo, read-out: Vdss
MEASUREMENT NAME: Vd (L/kg)

# annotated cases, reported Vd shown
compound="CN1CCNc2nc(CCCc3noc(CC(CC(=O)O)c4ccc5c(c4)OCO5)n3)ccc21 (configuration not stated)" measurement=0.447
compound=O=C(O)C[C@H](Cc1nc(CCCCNc2cc(N3CCSCC3)ccn2)no1)c1ccc2c(c1)OCO2 measurement=0.897
compound="COc1ccc(C(CC(=O)O)Cc2nc(CCCc3ccc4c(n3)NCCC4)no2)cn1 (configuration not stated)" measurement=0.694

I = O=C(O)C[C@H](Cc1nc(CCCc2ccc3c(n2)NCCC3)no1)c1ccc2c(c1)OCO2
II = O=C(O)CC(Cc1nc(CCCc2ccc3c(n2)NCCC3)no1)c1cnc(C2CC2)s1 (configuration not stated)
Hi team, can someone confirm which has the larger Vd: I or II ? Thanks. When you have decided, please share the label of that item.
I
